# logEC50 ± SEM values compiled below
Target: MT1 receptor (Homo sapiens)
Sequence (P48039 whole entry): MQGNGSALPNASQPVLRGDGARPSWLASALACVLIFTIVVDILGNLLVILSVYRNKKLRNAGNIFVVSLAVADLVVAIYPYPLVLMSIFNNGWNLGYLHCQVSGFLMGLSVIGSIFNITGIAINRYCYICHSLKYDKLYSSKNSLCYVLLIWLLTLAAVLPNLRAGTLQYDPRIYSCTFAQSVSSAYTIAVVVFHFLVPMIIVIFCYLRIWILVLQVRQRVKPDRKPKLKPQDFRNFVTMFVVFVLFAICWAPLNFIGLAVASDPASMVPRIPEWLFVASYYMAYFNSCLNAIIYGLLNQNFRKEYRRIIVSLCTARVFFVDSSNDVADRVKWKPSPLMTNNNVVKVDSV
Assay: FLIPR Ca2+ mobilization assay, MT1
Type: cell-based
Parameters: expressed in transfected cells; host or cells: COS-7 (monkey kidney fibroblast)
Conditions: Table 2; MT1; log value, negative; NSR = No significant response
Field format: numeric only.

Recorded logEC50 ± SEM, per entry:
{"columns": ["sampleSmiles", "logEC50 ± SEM"],
 "data": [
  ["COc1cc(COc2c(OC)ccc3c(=O)n(C)ccc23)cc(OC)c1", "−5.15"],
  ["COc1cccc(COc2cc3ccn(C)c(=O)c3cc2OC)c1", "−6.79"]
]}

Please look at the following compound next.
Problem: Would you kindly share the measured logEC50 ± SEM for "COc1cc2ccn(C)c(=O)c2cc1OCc1ccc(C(C)(C)C)cc1" ?
Result: −5.35
